# Tested on: HCT-116 colon
# PROTOCOL DETAILS: NCI tumour cell line growth inhibition, 48 h
Would you kindly list TGI for each of these molecules?

# TGI lookup, item CC(=O)[CH-]C(=O)c1ccccc1.CC(=O)[CH-]C(=O)c1ccccc1.CC[C@H](CCC(C)[C@H]1CCC2[C@@H]3CC=C4C[C@@H]([O-])CC[C@]4(C)C3CC[C@@]21C)C(C)C.CC[C@H](CCC(C)[C@H]1CCC2[C@@H]3CC=C4C[C@@H]([O-])CC[C@]4(C)C3CC[C@@]21C)C(C)C.Cl.[Ti+4] (stereo partly drawn)
> 25 µM

Then CN(C)CCNc1ncnc2nc(-c3ccccc3)c(-c3ccccc3)nc12 ?
> 100 µM

Then CC(C)=NC(C(=O)O)C(C)(C)S (stereo not drawn) ?
> 100 µM

Then Cc1ccc2c(-c3ccnc(Nc4cccc(C(F)(F)F)c4)n3)c(-c3ccccc3)nn2n1 ?
> 12.2 µM

Then COc1ncnc2c(Cl)c(C(O)c3ccccc3)c(Cl)cc12 (stereo not drawn) ?
44.1 µM

Then COc1ccc(NC(=O)CSc2nc(C)nc3c2sc(=S)n3-c2ccccc2)cc1 ?
> 10 µM

Then COc1cc2c(SCCN(C)C)nc3ccccc3c2c2ccccc12 ?
2.83 µM

Then CC(=O)OC1CCn2c1nc1c2C(=O)C=C(N2CC2)C1=O (stereo not drawn) ?
0.781 µM

----------
# Test system: NCI-H23 lung
# PROTOCOL DETAILS: NCI tumour cell line growth inhibition, 48 h
ASSAY ENDPOINT: TGI

Param readout = TGI; param system = NCI-H23 lung; param query = C/C(=N\O)C1CC(CC(=O)O)C1(C)C (stereo not drawn) ; response: value
> 100 µM

Then COc1ccc(/C=C/C(=O)OC2CC34CCNC35CC(OC5(OC)C2OC)c2ccc(OC)c(O)c24)cc1O (stereo not drawn) ?
> 100 µM

Then c1ccc(-c2sc(-c3ccccc3)c3c2C(c2ccccc2)c2c(-c4ccccc4)sc(-c4ccccc4)c2C3c2ccccc2)cc1 (stereo not drawn) ?
> 100 µM

Then CN1C(=O)C(O)CC1c1ccccc1F (stereo not drawn) ?
> 100 µM

Then CSc1ncc2c(C#N)c3n(C)c4ccccc4n3c(=O)c2n1 ?
> 100 µM

Then O=C1CC(=O)NC(=NN2C(=O)CSC2c2ccc(Cl)cc2)N1 (stereo not drawn) ?
> 100 µM

Then COC(=O)C1=C(C)NC(CF)=C(C(=O)OC)C1c1cccc2c(=O)c3ccccc3oc12 (stereo not drawn) ?
> 100 µM

Then CC(=O)Nn1c(Cc2ccc(Cl)cc2)nn(C)c1=O ?
> 100 µM

Then C[C@H]1[C@H]2[C@H](C[C@@]3(C)C4=CC[C@H]5C(C)(C)[C@@H](OC6OCC(O)C(O)C6O)CC[C@@]56C[C@@]46CC[C@]23C)O[C@@]2(O)[C@@H]1OC(C)(C)[C@H]2O (stereo partly drawn) ?
3.31 µM

Then CCN(CC)CCOc1ccc2c(-c3ccccc3)c(-c3ccc(OC)cc3)c(=O)oc2c1 ?
16.5 µM

Then CS(=O)(=O)ON1C(=O)c2ccc(N)cc2C1=O ?
> 100 µM

Then O=Nn1c2ccccc2c2ccccc21 ?
> 100 µM

Then O=C(N[C@H](CO)[C@H](O)c1ccc([N+](=O)[O-])cc1)C(Cl)Cl ?
> 100 µM

Then O=C1C=C(Nc2cc(Cl)ccc2Cl)c2ccccc2C1=O ?
39.3 µM

Then COc1ccc(/C(=N/Nc2nc3ccccc3n2Cc2ccccc2)C(=O)O)cc1 ?
43.3 µM

Then O=C(Oc1ccc(C(c2c(O)c3ccccc3oc2=O)c2c(O)c3ccccc3oc2=O)cc1)c1ccc(C(=O)c2ccccc2)cc1 ?
35.3 µM

Then N#Cc1ncc(-c2ccc(C(F)(F)F)cc2)c(NC2CCCCCC2)n1 ?
> 100 µM

Then CC1(C)COC(c2cccc(C(O)c3ccc(Cl)cc3)c2)=N1 (stereo not drawn) ?
64.1 µM

Then CCc1nc(N)nc(N)c1-c1ccc(N2CCNCC2)c([N+](=O)[O-])c1 ?
> 100 µM

Then CN1CC=C(C#CC(C)(C)O)CC1 ?
> 37.5 µM

Then CN(C)CCNc1ncnc2nc(-c3ccccc3)c(-c3ccccc3)nc12 ?
> 100 µM

Then CN1C(=O)[C@@H](CC2CCCC2)N(C2CCCC2)c2nc(Nc3cc(Cl)c(O)c(Cl)c3)ncc21 ?
> 100 µM

Then CC(C)(C)OC(=O)NC(Cc1ccc(OC(C)(C)C)cc1)C(=O)N[C@H]1CC[C@H](C(=O)O)C1 (stereo partly drawn) ?
> 100 µM

Then COC1(OC)CCCCCCCCC(OC)(OC)CCCCCCCC1 ?
> 100 µM

Then O=C1NC(=S)NC(=O)C1=Cc1ccc([N+](=O)[O-])o1 ?
31.9 µM

Then CC(C)(C)c1cc(Cc2ccc(S(C)(=O)=O)cc2)c(O)c(C(C)(C)C)c1 ?
31.3 µM

Then COC(=O)c1ccccc1/C=C1\Cc2ccc3c(c2C1=O)CCC3 ?
> 100 µM

Then COc1ccc(NC(=O)CSc2nc(C)nc3c2sc(=S)n3-c2ccccc2)cc1 ?
> 10 µM

Then Cc1[nH]c(N)nc(=S)c1CCCNc1ccccc1 ?
> 100 µM

Then O=C(O)CCC1C(=O)C2CCN1CC2 (stereo not drawn) ?
> 100 µM

Then O=C(NCCc1ccccn1)c1ccc2cc(C(=O)N3CC(CCl)c4ccc([N+](=O)[O-])cc43)[nH]c2c1 (stereo not drawn) ?
> 100 µM

Then C#CCNCC(=O)O ?
> 100 µM

Then NC(N)=NCCCC(Nc1c2ccccc2nc2ccccc12)C(=O)O (stereo not drawn) ?
> 100 µM

Then O=C(CC(O)(C(F)(F)F)C(F)(F)F)c1cccs1 ?
> 10 µM

Then Oc1ccc(I)c2cccnc12 ?
55.2 µM

Then Fc1ccc(C2CC(c3cccc(Nc4ccncc4)c3)=NN2c2ccccc2)cc1 (stereo not drawn) ?
3.33 µM

Then CN(C)C/C=C/C(=O)Nc1ccc(C(=O)Nc2cccc(Nc3ncc(Cl)c(-c4c[nH]c5ccccc45)n3)c2)cc1 ?
0.133 µM

Then N#Cc1c(-c2ccccc2)nc(SCC(O)CN2CCOCC2)nc1N1CCOCC1 (stereo not drawn) ?
> 100 µM

Then CC(=O)OC1CCn2c1nc1c2C(=O)C=C(N2CC2)C1=O (stereo not drawn) ?
1.08 µM

Then NC(=S)NN=Cc1ccccc1OCc1cccc(COc2ccccc2C=NNC(N)=S)n1 ?
> 100 µM

Then CN1CCC(=C(c2ccc(Cl)cc2)c2ccccn2)CC1 ?
> 100 µM

Then OC(Cc1cnnc2ccccc12)C(Cl)(Cl)Cl (stereo not drawn) ?
> 10 µM

Then COc1c(CC(C)=O)c2ccccc2n1C(C)=O ?
> 100 µM

----------
# System: OVCAR-4 ovarian
# PROTOCOL DETAILS: NCI tumour cell line growth inhibition, 48 h
ASSAY ENDPOINT: TGI

# TGI lookup, item CC(O)C1(O)C(O)CC(OC2c3cc4c(c(O)c3[C@@H]3C[C@@]2(C)OC32C=c3cc[nH]c3=N2)C(=O)c2cccc(O)c2C4=O)OC1C (stereo not given in full)
7.2 µM

Then O=C1C=C(Nc2cc(Cl)ccc2Cl)c2ccccc2C1=O ?
> 100 µM

Then O=Nn1c2ccccc2c2ccccc21 ?
> 100 µM

Then CN(C)CC1CCCC/C1=N\OC(=O)c1ccccc1 (stereo not given) ?
> 100 µM

Then C#CCC(O)c1ccc(OC)c(OCc2ccccc2)c1 (stereo not given) ?
> 100 µM

Then Cc1c(CN2CCOCC2)c(CN2CCOCC2)c(C)n1-c1ccc(Cl)cn1 ?
> 100 µM

Then Cc1c(C(=O)/C=C/c2ccc([N+](=O)[O-])cc2)[n+](=O)c2ccccc2n1[O-] ?
> 100 µM

Then CC1CCC2C(C)C(OC(=O)CCC(=O)O)OC3OC4(C)CCC1C32OO4 (stereo not given) ?
27.7 µM

Then O=C1CC[C@@H](S(=O)(=O)c2ccccc2)[C@H](/C=C/c2ccccc2)O1 ?
> 100 µM

Then CCOC(=O)CCCc1cc(=O)c2c(C)c3[nH]c4ccc(Cl)cc4c3c(C)c2[nH]1 ?
59.1 µM

----------
# System: UACC-257 melanoma
# PROTOCOL DETAILS: NCI tumour cell line growth inhibition, 48 h
Would you kindly list TGI for each of these compounds?

# TGI lookup, item O=S1(=O)C[C@H](NCc2ccccc2)[C@H](NCc2ccccc2)C1
> 100 µM

Then CCN1CCCCCCCCCC(=N/O)/C(=N\O)C1 ?
> 100 µM

Then N#Cc1ncc(-c2ccc(C(F)(F)F)cc2)c(NC2CCCCCC2)n1 ?
> 100 µM

Then O=C1NC(=NCCc2ccccc2F)S/C1=C\c1ccc2ncccc2c1 ?
> 25 µM

Then COc1cc(O)c2c(c1C)C(C)(O)c1c(C)coc1C2=O (centres undefined) ?
> 100 µM

Then Nc1ncc(-c2ccc3ncnc(N4CCc5cc(F)c(Cl)cc54)c3c2)cc1C=O ?
> 100 µM

Then C[C@H]1[C@H]2[C@H](C[C@@]3(C)C4=CC[C@H]5C(C)(C)[C@@H](OC6OCC(O)C(O)C6O)CC[C@@]56C[C@@]46CC[C@]23C)O[C@@]2(O)[C@@H]1OC(C)(C)[C@H]2O (some centres undefined) ?
4.7 µM

Then N#C/C(=C\c1ccc(O)c(O)c1)C(=O)NCc1cccc(C(F)(F)F)c1 ?
52.5 µM

Then c1ccc(-c2sc(-c3ccccc3)c3c2C(c2ccccc2)c2c(-c4ccccc4)sc(-c4ccccc4)c2C3c2ccccc2)cc1 (centres undefined) ?
> 100 µM
